In this section we review reported pEC50 values for a set of compounds.
target.entity: human TRPM4 (Homo sapiens)
measurement.description: QPatch automated patch clamp on TRPM4-expressing HEK293 cells
settings: hsTRPM4-expressing HEK293 cells, read-out: TRPM4 EC50 (potentiator activity)
pEC50: −log10 of the molar value.

[
  {
    "mol": "Nc1nnc(Cc2cccc(Br)c2)s1",
    "pEC50": 5.87
  },
  {
    "mol": "Oc1ccccc1NCc1nc2ccccc2o1",
    "pEC50": 5.49
  }
]

====

target.entity: human TRPM5 (Homo sapiens, UniProt Q9NZQ8)
Sequence (Q9NZQ8 whole entry): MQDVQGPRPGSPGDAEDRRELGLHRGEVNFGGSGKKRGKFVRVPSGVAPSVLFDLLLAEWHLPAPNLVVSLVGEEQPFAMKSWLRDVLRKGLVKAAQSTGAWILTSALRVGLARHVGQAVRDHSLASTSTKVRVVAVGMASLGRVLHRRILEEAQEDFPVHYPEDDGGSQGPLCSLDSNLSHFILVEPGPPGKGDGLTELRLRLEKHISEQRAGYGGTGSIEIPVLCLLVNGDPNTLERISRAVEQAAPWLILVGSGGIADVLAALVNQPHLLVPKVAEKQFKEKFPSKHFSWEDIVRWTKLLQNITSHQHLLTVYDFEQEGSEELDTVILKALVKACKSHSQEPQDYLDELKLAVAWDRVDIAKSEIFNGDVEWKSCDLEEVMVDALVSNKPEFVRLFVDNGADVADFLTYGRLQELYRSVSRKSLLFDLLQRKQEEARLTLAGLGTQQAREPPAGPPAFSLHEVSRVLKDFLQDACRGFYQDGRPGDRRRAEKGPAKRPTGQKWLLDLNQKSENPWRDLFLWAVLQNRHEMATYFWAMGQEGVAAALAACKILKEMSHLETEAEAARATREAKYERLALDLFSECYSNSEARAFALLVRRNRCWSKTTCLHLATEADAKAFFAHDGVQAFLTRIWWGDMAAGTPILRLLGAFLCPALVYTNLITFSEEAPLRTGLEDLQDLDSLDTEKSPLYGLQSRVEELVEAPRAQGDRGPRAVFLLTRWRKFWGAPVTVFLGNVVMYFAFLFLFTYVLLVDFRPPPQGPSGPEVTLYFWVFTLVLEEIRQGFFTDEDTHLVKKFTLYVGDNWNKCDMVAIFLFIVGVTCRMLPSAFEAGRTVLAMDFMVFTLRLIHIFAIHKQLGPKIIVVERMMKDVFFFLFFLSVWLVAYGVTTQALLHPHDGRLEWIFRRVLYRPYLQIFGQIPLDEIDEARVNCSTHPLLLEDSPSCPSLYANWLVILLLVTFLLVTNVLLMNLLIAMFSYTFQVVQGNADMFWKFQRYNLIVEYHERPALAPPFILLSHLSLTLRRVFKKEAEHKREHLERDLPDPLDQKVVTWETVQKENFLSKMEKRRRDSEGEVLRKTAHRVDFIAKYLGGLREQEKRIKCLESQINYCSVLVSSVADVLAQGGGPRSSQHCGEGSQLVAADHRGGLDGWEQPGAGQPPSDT
measurement.description: QPatch automated patch clamp on TRPM5-expressing HEK293 cells
settings: hsTRPM5-expressing HEK293 cells
pIC50: −log10 of the molar value.
observable: pIC50

[
  {
    "mol": "CNc1ccc(-c2ccccc2NCc2nc3ccccc3o2)cc1",
    "target.entity": "human TRPM5 (Homo sapiens, UniProt Q9NZQ8)",
    "observable": "pIC50",
    "measurement": "< 4.52"
  },
  {
    "mol": "Nc1ccccc1-c1ccccc1NCc1nc2ccccc2o1",
    "target.entity": "human TRPM5 (Homo sapiens, UniProt Q9NZQ8)",
    "observable": "pIC50",
    "measurement": "< 4.52"
  },
  {
    "mol": "O=C(CCc1ccccc1)Nc1ccc(C(F)(F)F)cc1C(=O)O",
    "target.entity": "human TRPM5 (Homo sapiens, UniProt Q9NZQ8)",
    "observable": "pIC50",
    "measurement": "< 4.52"
  },
  {
    "mol": "O=C(CCc1cccc(Cl)c1)Nc1ccc(Br)cc1C(=O)O",
    "target.entity": "human TRPM5 (Homo sapiens, UniProt Q9NZQ8)",
    "observable": "pIC50",
    "measurement": 6.03
  },
  {
    "mol": "CCCNc1cccc(-c2ccccc2NCc2nc3ccccc3o2)c1",
    "target.entity": "human TRPM5 (Homo sapiens, UniProt Q9NZQ8)",
    "observable": "pIC50",
    "measurement": "< 4.52"
  },
  {
    "mol": "Cc1ccsc1-c1ccccc1NCc1nc2ccccc2o1",
    "target.entity": "human TRPM5 (Homo sapiens, UniProt Q9NZQ8)",
    "observable": "pIC50",
    "measurement": "< 5.00"
  },
  {
    "mol": "Fc1ccccc1-c1ccccc1NCc1nc2ccccc2o1",
    "target.entity": "human TRPM5 (Homo sapiens, UniProt Q9NZQ8)",
    "observable": "pIC50",
    "measurement": "< 5.00"
  },
  {
    "mol": "O=C(O)c1cc(Br)ccc1NS(=O)(=O)c1ccc(Cl)cc1",
    "target.entity": "human TRPM5 (Homo sapiens, UniProt Q9NZQ8)",
    "observable": "pIC50",
    "measurement": "< 4.52"
  },
  {
    "mol": "Nc1cccc(-c2ccccc2NCc2nc3ccccc3o2)c1",
    "target.entity": "human TRPM5 (Homo sapiens, UniProt Q9NZQ8)",
    "observable": "pIC50",
    "measurement": "< 4.52"
  },
  {
    "mol": "CNc1cccc(-c2ccccc2NCc2nc3ccccc3o2)c1",
    "target.entity": "human TRPM5 (Homo sapiens, UniProt Q9NZQ8)",
    "observable": "pIC50",
    "measurement": "< 4.52"
  },
  {
    "mol": "c1csc(-c2ccccc2NCc2nc3ccccc3o2)c1",
    "target.entity": "human TRPM5 (Homo sapiens, UniProt Q9NZQ8)",
    "observable": "pIC50",
    "measurement": "< 5.00"
  },
  {
    "mol": "O=C(CCc1ccccc1Cl)Nc1ccc(Br)cc1C(=O)O",
    "target.entity": "human TRPM5 (Homo sapiens, UniProt Q9NZQ8)",
    "observable": "pIC50",
    "measurement": 4.72
  },
  {
    "mol": "Fc1cccc(-c2ccccc2NCc2nc3ccccc3o2)c1",
    "target.entity": "human TRPM5 (Homo sapiens, UniProt Q9NZQ8)",
    "observable": "pIC50",
    "measurement": "< 5.00"
  },
  {
    "mol": "O=C(CCc1ccccc1)Nc1ccc(Cl)cc1C(=O)O",
    "target.entity": "human TRPM5 (Homo sapiens, UniProt Q9NZQ8)",
    "observable": "pIC50",
    "measurement": "< 4.52"
  },
  {
    "mol": "Cc1ccc(-c2ccccc2NCc2nc3ccccc3o2)s1",
    "target.entity": "human TRPM5 (Homo sapiens, UniProt Q9NZQ8)",
    "observable": "pIC50",
    "measurement": "< 5.00"
  }
]

====

Here, each record is paired with measured IC50 data.
target.entity: CYP3A4 (Homo sapiens)
Construct: purchased BD Gentest
measurement.description: CYP inhibition assay 3A4
Format: in vitro ADME
settings: TDI; read-out: Cyp IC50 TDI 3A4
Description: The half-maximal inhibitory concentration (IC50) for cytochrome P450 (CYP) enzymes was determined using an in vitro enzyme inhibition assay. Recombinant CYP enzymes or human liver microsomes from BD Gentest, in 0.1 M phosphate buffer pH 7.4, containing native CYP enzymes were incubated with the test compound at various concentrations (1, 3, 10 and 30 μM) and containing 0.5% DMSO and 0.1% BSA final concentrations. […]
observable: IC50

[
  {
    "mol": "Fc1cccc(-c2ccccc2NCc2nc3ccccc3o2)c1",
    "measurement": "> 50 µM"
  },
  {
    "mol": "c1csc(-c2ccccc2NCc2nc3ccccc3o2)c1",
    "measurement": "> 50 µM"
  },
  {
    "mol": "Cc1ccc(-c2ccccc2NCc2nc3ccccc3o2)s1",
    "measurement": "> 50 µM"
  }
]

====

target.entity: CYP3A4 (Homo sapiens)
Construct: purchased BD Gentest
measurement.description: CYP inhibition assay 3A4
Type: in vitro ADME
settings: read-out: Cyp IC50 3A4
Procedure: The half-maximal inhibitory concentration (IC50) for cytochrome P450 (CYP) enzymes was determined using an in vitro enzyme inhibition assay. Recombinant CYP enzymes or human liver microsomes from BD Gentest, in 0.1 M phosphate buffer pH 7.4, containing native CYP enzymes were incubated with the test compound at various concentrations (1, 3, 10 and 30 μM) and containing 0.5% DMSO and 0.1% BSA final concentrations. […]
Overview of reported IC50 across a group of molecules:

[
  {
    "mol": "Fc1cccc(-c2ccccc2NCc2nc3ccccc3o2)c1",
    "target.entity": "CYP3A4 (Homo sapiens)",
    "IC50": "> 50 µM"
  },
  {
    "mol": "Cc1ccc(-c2ccccc2NCc2nc3ccccc3o2)s1",
    "target.entity": "CYP3A4 (Homo sapiens)",
    "IC50": "> 50 µM"
  },
  {
    "mol": "c1csc(-c2ccccc2NCc2nc3ccccc3o2)c1",
    "target.entity": "CYP3A4 (Homo sapiens)",
    "IC50": "> 50 µM"
  },
  {
    "mol": "Fc1ccccc1-c1ccccc1NCc1nc2ccccc2o1",
    "target.entity": "CYP3A4 (Homo sapiens)",
    "IC50": "> 29.6 µM"
  }
]

====

Below: a set of entries, each annotated with reported pIC50.
target.entity: CYP3A4 (Homo sapiens, UniProt P08684)
Construct: purchased BD Gentest
Sequence (P08684 whole entry): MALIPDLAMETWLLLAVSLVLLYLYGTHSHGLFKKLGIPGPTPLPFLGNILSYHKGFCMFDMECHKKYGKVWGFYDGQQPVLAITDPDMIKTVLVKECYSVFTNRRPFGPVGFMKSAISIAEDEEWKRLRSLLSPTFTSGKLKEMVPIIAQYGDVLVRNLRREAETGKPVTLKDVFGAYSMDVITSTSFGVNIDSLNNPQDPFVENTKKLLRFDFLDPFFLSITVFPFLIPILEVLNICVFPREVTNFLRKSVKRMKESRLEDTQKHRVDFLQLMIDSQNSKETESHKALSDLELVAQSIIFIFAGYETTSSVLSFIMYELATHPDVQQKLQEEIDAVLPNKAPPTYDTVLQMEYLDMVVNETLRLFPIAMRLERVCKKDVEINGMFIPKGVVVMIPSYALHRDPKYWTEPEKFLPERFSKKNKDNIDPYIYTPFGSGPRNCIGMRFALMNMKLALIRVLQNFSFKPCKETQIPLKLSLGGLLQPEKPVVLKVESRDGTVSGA
measurement.description: CYP inhibition assay 3A4
Type: in vitro ADME
settings: human, pH 7.4
pIC50: −log10 of the molar value.

[
  {
    "compound": "CCCNc1cccc(-c2ccccc2NCc2nc3ccccc3o2)c1 [CMP471]",
    "pIC50": "< 4.30"
  },
  {
    "compound": "Cc1ccsc1-c1ccccc1NCc1nc2ccccc2o1 [CMP369]",
    "pIC50": "< 4.30"
  }
]

====

target.entity: human TRPM4 (Homo sapiens, UniProt Q8TD43)
Sequence (Q8TD43 whole entry): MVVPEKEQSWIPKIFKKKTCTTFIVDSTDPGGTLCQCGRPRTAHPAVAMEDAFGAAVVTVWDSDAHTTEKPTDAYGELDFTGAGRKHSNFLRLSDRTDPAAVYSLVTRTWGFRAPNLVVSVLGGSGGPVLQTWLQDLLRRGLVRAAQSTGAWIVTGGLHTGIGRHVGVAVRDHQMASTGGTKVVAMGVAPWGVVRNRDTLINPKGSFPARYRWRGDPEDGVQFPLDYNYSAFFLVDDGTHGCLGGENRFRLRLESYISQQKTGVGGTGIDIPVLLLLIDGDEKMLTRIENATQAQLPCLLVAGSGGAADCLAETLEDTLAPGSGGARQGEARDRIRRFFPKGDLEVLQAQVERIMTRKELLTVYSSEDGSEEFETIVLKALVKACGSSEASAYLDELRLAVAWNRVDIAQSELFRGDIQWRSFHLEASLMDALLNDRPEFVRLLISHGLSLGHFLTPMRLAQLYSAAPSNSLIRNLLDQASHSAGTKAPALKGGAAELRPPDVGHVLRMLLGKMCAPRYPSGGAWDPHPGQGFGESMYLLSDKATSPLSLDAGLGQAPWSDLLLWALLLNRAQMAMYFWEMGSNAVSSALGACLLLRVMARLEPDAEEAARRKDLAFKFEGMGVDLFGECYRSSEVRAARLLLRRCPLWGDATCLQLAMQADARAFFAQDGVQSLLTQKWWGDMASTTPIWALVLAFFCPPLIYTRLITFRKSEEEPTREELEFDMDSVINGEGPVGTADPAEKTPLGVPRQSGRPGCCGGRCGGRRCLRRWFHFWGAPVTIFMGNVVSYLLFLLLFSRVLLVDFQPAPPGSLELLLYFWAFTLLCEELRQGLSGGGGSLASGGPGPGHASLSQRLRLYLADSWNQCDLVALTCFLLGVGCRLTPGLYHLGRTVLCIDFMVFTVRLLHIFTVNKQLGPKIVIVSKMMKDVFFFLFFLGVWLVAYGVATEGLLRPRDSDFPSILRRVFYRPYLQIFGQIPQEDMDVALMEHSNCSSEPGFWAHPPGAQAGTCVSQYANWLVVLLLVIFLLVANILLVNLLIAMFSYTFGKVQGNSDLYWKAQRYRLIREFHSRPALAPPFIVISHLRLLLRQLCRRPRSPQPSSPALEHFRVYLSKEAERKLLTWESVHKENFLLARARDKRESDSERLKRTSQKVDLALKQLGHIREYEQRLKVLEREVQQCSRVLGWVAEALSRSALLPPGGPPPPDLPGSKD
measurement.description: QPatch automated patch clamp on TRPM4-expressing HEK293 cells
settings: hsTRPM4-expressing HEK293 cells

[
  {
    "molecule": "c1ccc(-c2ccccc2NCc2nc3ccccc3o2)cc1 [CMP009]",
    "IC50 / nM": 550
  },
  {
    "molecule": "O=C(CCc1ccccc1Cl)Nc1ccc(Br)cc1C(=O)O [CMP510]",
    "IC50 / nM": 720
  },
  {
    "molecule": "O=C(O)c1cc(Br)ccc1NS(=O)(=O)c1ccc(Cl)cc1 [CMP116]",
    "IC50 / nM": 1870
  },
  {
    "molecule": "Fc1cccc(-c2ccccc2NCc2nc3ccccc3o2)c1 [CMP343]",
    "IC50 / nM": 90
  },
  {
    "molecule": "O=C(CCc1ccccc1)Nc1ccc(C(F)(F)F)cc1C(=O)O [CMP502]",
    "IC50 / nM": 600
  },
  {
    "molecule": "COc1ccccc1-c1ccccc1NCc1nc2ccccc2o1 [CMP320]",
    "IC50 / nM": 820
  },
  {
    "molecule": "c1csc(-c2ccccc2NCc2nc3ccccc3o2)c1 [CMP355]",
    "IC50 / nM": 590
  },
  {
    "molecule": "c1ccc(CSCc2cn3ccsc3n2)cc1 [CMP133]",
    "IC50 / nM": 280
  },
  {
    "molecule": "Fc1ccccc1-c1ccccc1NCc1nc2ccccc2o1 [CMP353]",
    "IC50 / nM": 80
  },
  {
    "molecule": "O=C(CCc1cccc(Cl)c1)Nc1ccc(Br)cc1C(=O)O [CMP512]",
    "IC50 / nM": 410
  },
  {
    "molecule": "COc1cccc(-c2ccccc2NCc2nc3ccccc3o2)c1 [CMP312]",
    "IC50 / nM": 4870
  },
  {
    "molecule": "O=C(CCc1ccccc1)Nc1ccc(Cl)cc1C(=O)O [CMP493]",
    "IC50 / nM": 530
  },
  {
    "molecule": "Cc1noc(-c2csc(S(=O)(=O)Nc3ccccc3C(F)(F)F)c2)c1C [CMP157]",
    "IC50 / nM": 360
  }
]
